Can you tell me selectivity ratio for the items I'm about to list?
assay: Selectivity index, ratio of CC50 for mouse J774 cells to IC50 for Leishmania amazonensis MHOM/Br/79/Mari promastigotes; format: toxicity; details: read-out: Ratio CC50/IC50
One number for each entry.

Hi team, please reply with selectivity ratio for each item in this list.
1. COC(=O)[C@]1(C)CCC[C@]2(C)c3cc(OC(C)=O)c(C(C)C)cc3CC[C@@H]12
2. CC(C)c1cc2c(cc1O)[C@@]1(C)CCC[C@@](C)(C(=O)O)[C@@H]1CC2
3. CC(C)c1cc2c(cc1O)[C@@]1(C)CCC[C@@](C)(CO)[C@@H]1CC2 [18-HYDROXYFERRUGINOL]
4. CCCCCCCCCCCCCCCCOP(=O)([O-])OCC[N+](C)(C)C [MILTEFOSINE]
5. CC(C)c1cc2c(cc1O)[C@@]1(C)CCC[C@@](C)(CO)[C@@H]1CC2=O
6. COC(=O)[C@]1(C)CCC[C@]2(C)c3cc(OC(C)=O)c(C(C)C)cc3C(=O)C[C@@H]12
7. COC(=O)[C@]1(C)CCC[C@]2(C)c3cc(C(C)=O)c(C(C)C)cc3CC[C@@H]12

// result
8.2
1.6
3
2.9
1.4
27.4
11.2

// query Report selectivity ratio for "COC(=O)[C@]1(C)CCC[C@]2(C)c3cc(O)c(C(C)C)cc3CC[C@@H]12"
// result 8.7

###

target: GABA-A receptor; alpha-1/beta-2/gamma-2 (Homo sapiens) (UniProt P14867+P47870+P18507); test: Modulation of recombinant wild type GABAA receptor alpha1beta2gamma2S (unknown origin) expressed in Xenopus laevis oocytes assessed as increase in GABA-evoked chloride current at 10 uM at -70 mV holding potential by two-microelectrode voltage clamp assay relative to control; assay type: cell-based
Can you tell me Activity for the items I'm about to list?
Answers are plain numbers, in %.

Hi team, please reply with Activity for each item in this list.
1. CC(C)c1cc2c(cc1O)[C@@]1(C)CCC[C@@](C)(C(=O)O)[C@@H]1CC2=O
2. CC(C)c1cc2c(cc1O)[C@@]1(C)CCC[C@@](C)(CO)[C@@H]1CC2 [18-HYDROXYFERRUGINOL]
3. CC(C)C1=CC2=CC[C@H]3[C@](C)(C(=O)O)CCC[C@]3(C)C2CC1 (some centres undefined)
4. COC(=O)[C@]1(C)CCC[C@]2(C)c3cc(O)c(C(C)C)cc3C(=O)C[C@@H]12

// result
1. -2
2. 29.3
3. 187
4. 37.4

###

test: Selectivity index, ratio of CC50 for mouse J774 cells to IC50 for Leishmania infantum MCAN/ES/96/BCN150 promastigotes; type: toxicity; settings: read-out: Ratio CC50/IC50
selectivity ratio under 30 gets yes (1), anything at or over 30 gets no (0).

// query Is selectivity ratio of "COC(=O)[C@]1(C)CCC[C@]2(C)c3cc(OC(C)=O)c(C(C)C)cc3CC[C@@H]12" strictly below 30?
// result yes (1)

// query Is selectivity ratio of CCCCCCCCCCCCCCCCOP(=O)([O-])OCC[N+](C)(C)C [MILTEFOSINE] strictly below 30?
// result no (0)

// query Is selectivity ratio of "COC(=O)[C@]1(C)CCC[C@]2(C)c3cc(C(C)=O)c(C(C)C)cc3CC[C@@H]12" strictly below 30?
// result no (0)

// query Is selectivity ratio of "COC(=O)[C@]1(C)CCC[C@]2(C)c3cc(OC(C)=O)c(C(C)C)cc3C(=O)C[C@@H]12" strictly below 30?
// result yes (1)

// query Is selectivity ratio of CC(C)c1cc2c(cc1O)[C@@]1(C)CCC[C@@](C)(CO)[C@@H]1CC2 [18-HYDROXYFERRUGINOL] strictly below 30?
// result no (0)
